measuredTarget: T1, human TIGIT expressed on cells (human, UniProt Q495A1 22-244)
T1 sequence (looked up): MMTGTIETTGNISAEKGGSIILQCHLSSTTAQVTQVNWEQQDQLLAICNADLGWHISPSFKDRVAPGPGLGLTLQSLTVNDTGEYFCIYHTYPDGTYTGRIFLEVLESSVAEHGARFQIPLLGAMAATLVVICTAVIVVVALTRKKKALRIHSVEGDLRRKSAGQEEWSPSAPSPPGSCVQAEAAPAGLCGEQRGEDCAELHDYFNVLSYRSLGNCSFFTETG
procedureDetails: cell-based or functional assay
observationType: EC50 of Jurkat-hTIGIT cell activation (luciferase), FIG. 12B (nM)
Lab book: enter the figure in nM, no units written.

- binder: "anti-TIGIT antibody clone 32919 (IgG) (antibody, V domains shown, human IgG; light chain optimised from 31288) VH: QLQLQESGPGLVKPSETLSLTCTVSGGSISSGSYYLAWIRQPPGKGLEWIGSIFRSGSTYYNPSLESRVTISVDTSKNQFSLKLSSVTAADTAVYYCAIEGANFKDFGYVAFDIWGQGTTVTVSS VL: EIVLTQSPATLSLSPGERATLSCRASQSVSSYLAWYQQKPGQAPRLLIYDASNRATGIPARFSGSGSGTDFTLTISSLEPEDFAVYYCQQENPRPRTFGGGTKVEIK"
  reported: 2.7
- binder: "anti-TIGIT antibody clone 29494 (IgG) (antibody, V domains shown) VH: QVQLQESGPGLVKPSETLSLTCTVSGGSISSGSYYLAWIRQPPGKGLEWIGSIFRSGSTYYNPSLESRVTISVDTSKNQFSLKLSSVTAADTAVYYCAIEGANFKDFGYVAFDIWGQGTMVTVSS VL: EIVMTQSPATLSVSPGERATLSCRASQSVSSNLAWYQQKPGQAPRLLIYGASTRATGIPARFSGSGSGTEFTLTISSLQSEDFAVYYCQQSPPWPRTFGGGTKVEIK"
  reported: 4.4
- binder: "anti-TIGIT antibody clone 32931 (IgG) (antibody, V domains shown, human IgG; light chain optimised from 31288) VH: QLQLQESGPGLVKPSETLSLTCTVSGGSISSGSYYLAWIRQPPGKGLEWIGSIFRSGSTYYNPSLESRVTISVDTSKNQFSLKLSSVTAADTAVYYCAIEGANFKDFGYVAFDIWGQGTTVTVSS VL: EIVMTQSPATLSVSPGERATLSCRASKSVSSNLAWYQQKPGQAPRLLIYFASTRATGIPARFSGSGSGTEFTLTISSLQSEDFAVYYCQQTSPWPRTFGGGTKVEIK"
  reported: 3.2
- binder: "anti-TIGIT antibody clone 29527 (IgG) (antibody, V domains shown) VH: QVQLVESGGGVVQPGRSLRLSCAASGFTFSSSYMHWVRQAPGKGLEWVAVIGADGSNKYYADSVEGRFTISRDNSKNTLYLQMNSLRAEDTALYYCAKPVPRRRGLDVWGQGTMVTVSS VL: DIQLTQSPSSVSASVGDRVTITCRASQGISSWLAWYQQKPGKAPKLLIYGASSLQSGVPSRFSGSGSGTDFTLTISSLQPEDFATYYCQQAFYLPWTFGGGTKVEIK"
  reported: 32

Then there is this binder:
Ask: # query: EC50 of Jurkat-hTIGIT cell activation (luciferase), FIG. 12B of entry anti-TIGIT antibody clone 29520 (IgG) (antibody, V domains shown) VH: QVQLVESGGGLVQPGRSLRLSCAASGFTFRDYAMHWVRQAPGKGLEWVSGITWNSGLIGYADSVKGRFTISRDNAKNSLYLQMNSLRAEDTALYYCAKPVPRLRGLDVWGQGTMVTVSS VL: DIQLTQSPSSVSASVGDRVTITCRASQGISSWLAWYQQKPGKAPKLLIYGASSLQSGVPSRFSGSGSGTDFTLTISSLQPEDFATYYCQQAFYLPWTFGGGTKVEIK
Result: 2.3
